Molecular target: T1, hGITR.mFc (human)
T1 construct: soluble dimeric construct with mouse Fc; also called dimeric human GITR
T1 chain: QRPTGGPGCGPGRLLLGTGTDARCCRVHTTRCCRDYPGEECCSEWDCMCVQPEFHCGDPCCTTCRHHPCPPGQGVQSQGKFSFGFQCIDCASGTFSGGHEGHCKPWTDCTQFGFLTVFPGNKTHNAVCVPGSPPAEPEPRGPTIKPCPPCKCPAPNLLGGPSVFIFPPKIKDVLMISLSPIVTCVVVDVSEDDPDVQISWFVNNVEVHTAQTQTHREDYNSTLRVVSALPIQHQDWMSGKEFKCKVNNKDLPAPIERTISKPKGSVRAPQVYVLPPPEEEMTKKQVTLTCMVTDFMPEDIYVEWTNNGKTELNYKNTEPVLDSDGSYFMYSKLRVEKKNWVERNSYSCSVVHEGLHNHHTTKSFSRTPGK
Assay: SPR 37C, mAb capture
Kindly state kon for each of the entries shown.
Write the answer as a number in M⁻¹ s⁻¹, unit excluded.

Query kon for H4H14476P (antibody, human IgG4, V domains shown, human IgG4 (H4H)) VH: QVQLVESGGGVVQPGRSLRLSCAASGFTFSNYGIHWVRQPPGQGLEWVAVIWYAGSNKFYADSVKGRFTISRDNSKNSAYLQMNSLRAEDTAVYYCARAPLGYYYYGMDVWGQGTTVTVSS VL: DIQMTQSPSSLSASVGDRVTITCRASQGIRNDLGWYQQKPGKAPKRLIYDASSLESGVPSRFSGSGSGTEFTLTISSLQPEDFATYYCLQHNSYPWTFGQGTKVEIK 906000

Query kon for H4H14508P (antibody, human IgG4, V domains shown, human IgG4 (H4H)) VH: QVQLVESGGGVVQPGRSLRLSCAASGLTVSSYVMHWVRQAPGKGLEWVAIIWYDGSNKYYGDSVKGRFTISRDNSKKTLYLQMNSLRAEDTAVYYCARGRPLSSSSSDYYGLDVWGQGTTVTVSS VL: AIQMTQSPSSLSASVGDRVTIICRASQGIRNDLGWYQQKPGKAPNLLIYAASSLQSGVPSRFSGSGSGTDFTLTISSLQPEDFATYYCLQDYNYPWTFGQGTKVEIK 1.21e+06
